molecular target: Neuronal nicotinic acetylcholine receptor; assay: Binding affinity against Nicotinic acetylcholine receptor using [3H](-)-nicotine radioligand
pKi: −log10 of the molar value.
reported_property: pKi

• CCCCCc1ccc(C2CCCN2C)cn1 (racemic) = 7.14
• CCCc1ccc(C2CCCN2C)cn1 (single isomer, unassigned; (-)) = 7.66
• CCc1ccc(C2CCCN2C)cn1 (single isomer, unassigned; (-)) = 8.25
• CCCc1ccc(C2CCCN2C)cn1 (racemic) = 7.60
• Cc1ccc(C2CCCN2C)cn1 (racemic) = 8.74
• CCCCc1ccc(C2CCCN2C)cn1 (single isomer, unassigned; (-)) = 7.68
